# targetEntity: T1, full length human OX40L expressed on CHO cells (human, UniProt P23510 1-183)
# T1 construct: CHO K1 stably transfected as described for CAKI cells; also called CHO-hOX40L; hOX40L expressing CHO cells
# T1 sequence: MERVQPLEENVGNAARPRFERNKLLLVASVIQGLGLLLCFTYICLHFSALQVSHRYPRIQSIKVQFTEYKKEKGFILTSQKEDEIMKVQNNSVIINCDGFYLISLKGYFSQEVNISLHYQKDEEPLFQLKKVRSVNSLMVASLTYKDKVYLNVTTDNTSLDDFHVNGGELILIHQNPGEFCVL
# assayProcedure: competition FACS with hOX40/Fc on CHO-hOX40L
observable: pIC50
One number for each entry, as −log10 of the molar value.

Answered examples (3):
OX40L01E10 (VHH, monovalent Nanobody from E. coli; not shown: C-terminal c-myc and His6 tag) VHH: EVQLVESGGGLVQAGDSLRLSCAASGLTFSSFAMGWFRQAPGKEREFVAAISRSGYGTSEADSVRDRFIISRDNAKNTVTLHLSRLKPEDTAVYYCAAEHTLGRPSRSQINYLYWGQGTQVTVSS: 7.92
OX40L19A07 (VHH, monovalent Nanobody from E. coli; not shown: C-terminal c-myc and His6 tag) VHH: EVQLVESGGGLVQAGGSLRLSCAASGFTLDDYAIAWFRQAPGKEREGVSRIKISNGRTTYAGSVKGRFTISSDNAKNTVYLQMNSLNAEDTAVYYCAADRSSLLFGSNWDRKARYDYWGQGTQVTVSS: 7.89
OX40L01B11 (VHH, monovalent Nanobody from E. coli; not shown: C-terminal c-myc and His6 tag) VHH: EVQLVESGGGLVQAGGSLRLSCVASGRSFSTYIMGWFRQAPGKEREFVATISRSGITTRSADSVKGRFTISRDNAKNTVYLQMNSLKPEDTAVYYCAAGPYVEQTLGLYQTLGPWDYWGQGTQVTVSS: 8.30

Here is the next item to consider.
Input line: Report pIC50 for OX40L01E07 (VHH, monovalent Nanobody from E. coli; not shown: C-terminal c-myc and His6 tag) VHH: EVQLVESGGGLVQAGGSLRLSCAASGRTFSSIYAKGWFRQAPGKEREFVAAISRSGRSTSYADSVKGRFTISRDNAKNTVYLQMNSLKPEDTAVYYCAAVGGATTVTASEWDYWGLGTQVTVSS
Output line: 7.96
